- System: N27 rat dopaminergic neural cells
- Run Description: MTT assay in N27 rat dopaminergic neural cells: inhibition of RSL3-induced cell death (ferroptosis)
- Assay type: cell-based
- Reported Conditions: Rattus norvegicus, N27, 24 h, ferroptosis induced by 0.5 μM RSL3, 24 hours, viability by MTT
Measurement Name: IC50
Kindly report the value followed by its unit.

In the examples that follow, each entry is paired with its recorded IC50.
CCC(C)Nc1cnc(-c2ccc(C)cc2)nc1NC1CCCC1 (centres unmarked) = 28 nM
CCCCCc1ccc(NC(C)CC)c(NC2CCCC2)n1 (centres unmarked) = 6 nM
Cc1ccc(-c2nc(NC3CCCC3)c3c(n2)C(=O)N(C)C(C)(C)N3)cc1 = 525 nM

Check the records and state IC50 for `CCCCOc1nc2c(c(NC3CCCC3)n1)NCCC2`
43 nM

Check the records and state IC50 for CCCCCc1nc(NC2CCOC2)c2c(n1)OCCN2 (centres unmarked)
388 nM

* * *

- System: N27 rat dopaminergic neural cells
- Run Description: MTT assay in N27 rat dopaminergic neural cells: inhibition of RSL3-induced cell death (ferroptosis)
- Format: cell-based
- Reported Conditions: Rattus norvegicus, N27, 24 h, ferroptosis induced by 0.5 μM RSL3, 24 hours, viability by MTT
Measured IC50, listed per entry for reference.
Please reply with the bare figure in nM and do not write the unit itself.

In the examples that follow, each entry is paired with its recorded IC50.
CCC(C)Nc1cnc(-c2ccncc2)nc1NC1CCCC1 (stereo not shown) = 106
CCC(C)Nc1ccc(-c2ccc(OC)cc2)nc1NC1CCCC1 (stereo not shown) = 8
c1ncc(-c2ccc(NC3COC3)c(NC3CCCC3)n2)cn1 = 32
CCCCC(O)c1nc2c(c(NC(C)(C)C)n1)NCCC2 (stereo not shown) = 139
CCC(C)Nc1ccc(-c2ccccn2)nc1NC1(C)CCOC1 (stereo not shown) = 14

Check the records and state IC50 for `CCCCC(=O)c1cc2c(c(Nc3ccccn3)c1)NCCC2`
343

Check the records and state IC50 for `Cc1ccc(-c2ccc(NC3COC3)c(NC3CCCC3)n2)cc1`
5

Check the records and state IC50 for `CCCCC(=O)c1cc2c(c(N3CCCC3=O)c1)NCCC2`
1150

* * *

- Test system: N27 rat dopaminergic neural cells
- Run Description: MTT assay in N27 rat dopaminergic neural cells: inhibition of RSL3-induced cell death (ferroptosis)
- Assay type: cell-based
- Reported Conditions: Rattus norvegicus, N27, 24 h, ferroptosis induced by 0.5 μM RSL3, 24 hours, viability by MTT
- Protocol: MTT Assay in N27 Rat Dopaminergic Neural Cells N27 rat dopaminergic neural cells (Millipore, SCC048) were cultured in RPMI-1640 media (Wisent, 350-000) supplemented with 1×GlutaMAX (Gibco, 35050-061), 10% FBS (embryonic stem cell qualified; Wisent, 920-040), and 1× Penicillin-Streptomycin (Wisent, 450-201). […] Plates were incubated for 24 hours at 37° C. in a tissue culture incubator, then cell viability was determined by MTT assay. […]
Measurement Name: IC50 (nM)
Please reply with the bare figure in nM and do not write the unit itself.

Check the records and state IC50 for `CCCCC(=O)c1cc2c(c(NC3CCCC3)n1)NCCC2`
8

* * *

- Tested on: N27 rat dopaminergic neural cells
- Run Description: MTT assay in N27 rat dopaminergic neural cells: inhibition of RSL3-induced cell death (ferroptosis)
- Assay type: cell-based
- Reported Conditions: Rattus norvegicus, N27, 24 h, ferroptosis induced by 0.5 μM RSL3, 24 hours, viability by MTT
Measured IC50, listed per entry for reference.
Please reply with the bare figure in nM and do not write the unit itself.

In the examples that follow, each entry is paired with its recorded IC50.
CCCCCc1cc2c(c(Nc3ccccn3)c1)NCCC2 = 18
CCC(C)Nc1ccc(-c2cccnc2)nc1NC1CCCC1 (centres unmarked) = 5
CCCCC(O)c1cc2c(c(Nc3ccccn3)c1)NCCC2 (centres unmarked) = 139
CCCCC(=O)c1cc2c(c(NC(C)(C)C)n1)NCC(C(F)(F)F)C2 (centres unmarked) = 36
CCCC(=O)c1ccc(NC(C)CC)c(NC2CCCC2)n1 (centres unmarked) = 21
CCC(C)Nc1cnc(-c2cncnc2)nc1NC1CCCC1 (centres unmarked) = 121
COCCOc1nc2c(c(NC3CCCC3)n1)NCCC2 = 160
c1ccc(-c2cn(-c3nc4c(c(NC5CCCC5)n3)NCCC4)nn2)cc1 = 21
CCCCC(=O)c1cc2c(c(NS(=O)(=O)CC(C)C)c1)NCCC2 = 9300
CC(=O)c1nc2c(c(NC3CCCC3)n1)NCCC2 = 2070

Find IC50 for `c1cc(-c2nc3c(c(NC4CCCC4)n2)NCCC3)ccn1` on N27 rat dopaminergic neural cells and write it down.
57

Find IC50 for CCCCC(=O)c1cc2c(c(NC3CCOC3)c1)NCCC2 (centres unmarked) on N27 rat dopaminergic neural cells and write it down.
16.8

Find IC50 for `Cc1ccc(-c2ccc(NC(C)(C)C)c(NC(C)(C)C)n2)cc1` on N27 rat dopaminergic neural cells and write it down.
14

Find IC50 for `CCCC#Cc1nc2c(c(NC3CCCC3)n1)NCCC2` on N27 rat dopaminergic neural cells and write it down.
34

Find IC50 for `CCC/C=C/c1nc2c(c(NC3CCCC3)n1)NCCC2` on N27 rat dopaminergic neural cells and write it down.
40

Find IC50 for CC1(Nc2nc(-c3ccc(F)cc3)ccc2NC2CCOCC2)CCOC1 (centres unmarked) on N27 rat dopaminergic neural cells and write it down.
1

Find IC50 for CCC(C)Nc1ccc(-c2ccncc2)nc1NC1CCCC1 (centres unmarked) on N27 rat dopaminergic neural cells and write it down.
6

Find IC50 for `C(#Cc1nc2c(c(NC3CCCC3)n1)NCCC2)c1ccccc1` on N27 rat dopaminergic neural cells and write it down.
35

* * *

Measured log10 IC50, listed per entry for reference.
- Tested on: N27 rat dopaminergic neural cells
- Run Description: MTT assay in N27 rat dopaminergic neural cells: inhibition of RSL3-induced cell death (ferroptosis)
- Type: cell-based
- Reported Conditions: Rattus norvegicus, N27, 24 h, ferroptosis induced by 0.5 μM RSL3, 24 hours, viability by MTT
All values: log10 IC50 [nM].

In the examples that follow, each entry is paired with its recorded log10 IC50.
COc1ccc(-c2ccc(NC3COC3)c(NC3CCCC3)n2)cc1 [Compound H-87] = 0.48
CC1(Nc2nc(-c3ccc(F)cc3)nc3c2NCCC3)CCOC1 (stereo not shown) [Compound M-14] = 1.46
Cc1ccc(-c2nc3c(c(NC4CCCC4)n2)NCCC3)cc1 [Compound A-32] = 0.78

Check the records and state log10 IC50 for c1cncc(-c2ccc(NC3COC3)c(NC3CCCC3)n2)c1 [Compound H-75]
1.64

* * *

Measured IC50, listed per entry for reference.
- Tested on: N27 rat dopaminergic neural cells
- Run Description: MTT assay in N27 rat dopaminergic neural cells: inhibition of RSL3-induced cell death (ferroptosis)
- Format: cell-based
- Reported Conditions: Rattus norvegicus, N27, 24 h, ferroptosis induced by 0.5 μM RSL3, 24 hours, viability by MTT
Please reply with the bare figure in nM and do not write the unit itself.

In the examples that follow, each entry is paired with its recorded IC50.
OC(c1ccccc1)c1nc2c(c(NC3CCCC3)n1)NCCC2 (stereo not drawn) [Compound A-10] = 71
CCCCC(=O)c1ccc2c(c1)C=CC(C)(C)N2 [Compound B-100] = 7440
CCCCC(O)c1cc2c(c(NC(C)(C)C)n1)NCC(C(F)(F)F)C2 (stereo not drawn) [Compound R-812] = 40
CC(C)(C)Nc1nc(OCC(F)(F)F)cc2c1NCC(C(F)(F)F)C2 (stereo not drawn) [Compound S-101] = 1260
CCCCC(=O)c1cc(N)c2c(c1)CCCN2 [Compound B-059] = 149

Check the records and state IC50 for Cc1ccc(-c2ccc(NC(C)(C)C)c(NC3CCCC3)n2)cc1 [Compound A-98]
7

Check the records and state IC50 for N#Cc1nc2c(c(NC3CCCC3)n1)NCCC2 [Compound F-38]
812

Check the records and state IC50 for CCC(C)Nc1ccc(-c2cncnc2)nc1NC1CCCC1 (stereo not drawn) [Compound H-80]
7

* * *

- Tested on: N27 rat dopaminergic neural cells
- Run Description: MTT assay in N27 rat dopaminergic neural cells: inhibition of RSL3-induced cell death (ferroptosis)
- Format: cell-based
- Reported Conditions: Rattus norvegicus, N27, 24 h, ferroptosis induced by 0.5 μM RSL3, 24 hours, viability by MTT
Measurement Name: IC50

In the examples that follow, each entry is paired with its recorded IC50.
CCCCC(=O)c1cc2c(c(-c3ccncc3)c1)NCCC2 = > 3000 nM
CCC/C=C/c1nc(NC2CCCC2)c2c(n1)SCC(=O)N2 = ≥ 3000 nM

Okay, now this compound:
Check the records and state IC50 for `CCCCCc1nc2c(c(NC3CCCC3)n1)NC(C)(C)CC2`
> 3000 nM
